- Test system: HL-60
- Test: Cytotoxicity against human HL60 cells after 48 hrs by MTT assay
- Assay type: functional, cell-based
- Measurement conditions: HL-60, 48 h
Measured parameter: IC50

Compound | System under test | Measured parameter | Value reported
C[C@H]1[C@H](C)CC[C@]2(C)CC[C@]3(C)C(=CC[C@@H]4[C@@]5(C)CC(C(N)=O)[C@H](O)[C@](C)(C(=O)O)[C@@H]5CC[C@]43C)[C@H]12 (stereo partly drawn) | HL-60 | IC50 | > 50 µM
CCCCOC(=O)[C@@]1(C)[C@H](O)CC[C@@]2(C)[C@H]1CC[C@]1(C)[C@@H]2CC=C2[C@@H]3[C@@H](C)[C@H](C)CC[C@]3(C)CC[C@]21C | HL-60 | IC50 | > 50 µM
CCCCOC(=O)[C@]1(C)[C@@H]2CC[C@]3(C)[C@H](CC=C4[C@@H]5[C@@H](C)[C@H](C)CC[C@]5(C)CC[C@]43C)[C@@]2(C)CC(C#N)[C@@H]1O (stereo partly drawn) | HL-60 | IC50 | > 50 µM

----------
- System: HL-60
- Test: Cytotoxicity against human HL60 cells after 48 hrs by MTT assay
- Format: functional, cell-based
- Measurement conditions: HL-60, 48 h
Recorded IC50 values for a group of compounds are listed next.

Molecule smiles | Bound type | IC50, µM
CCCCOC(=O)[C@@]1(C)C(=O)/C(=C\O)C[C@]2(C)[C@H]3CC=C4[C@@H]5[C@@H](C)[C@H](C)CC[C@]5(C)CC[C@@]4(C)[C@]3(C)CC[C@@H]12 | = | 33
CCCCOC(=O)[C@@]1(C)C(=O)C(C#N)=C[C@]2(C)[C@H]3CC=C4[C@@H]5[C@@H](C)[C@H](C)CC[C@]5(C)CC[C@@]4(C)[C@]3(C)CC[C@@H]12 | = | 0.42
CCCCOC(=O)[C@@]1(C)C(=O)CC[C@]2(C)[C@H]3C(=O)C=C4[C@@H]5[C@@H](C)[C@H](C)CC[C@]5(C)CC[C@@]4(C)[C@]3(C)CC[C@@H]12 | > | 50

----------
- System: HL-60
- Test: Cytotoxicity against human HL60 cells after 48 hrs by MTT assay
- Format: functional, cell-based
- Measurement conditions: HL-60, 48 h
pIC50: −log10 of the molar value.

Molecule | Bound type | pIC50
C[C@H]1[C@H](C)CC[C@]2(C)CC[C@]3(C)C(=CC(=O)[C@@H]4[C@@]5(C)CC(C(N)=O)[C@H](O)[C@](C)(C(=O)O)[C@@H]5CC[C@]43C)[C@H]12 (stereo not given in full) | < | 4.30
CCCCOC(=O)[C@@]1(C)c2oncc2C[C@@]2(C)[C@H]1CC[C@]1(C)[C@@H]2CC=C2[C@@H]3[C@@H](C)[C@H](C)CC[C@]3(C)CC[C@]21C | = | 4.30
C[C@H]1[C@H](C)CC[C@]2(C)CC[C@]3(C)C(=CC(=O)[C@@H]4[C@@]5(C)CC(C(N)=O)[C@H](O)[C@](C)(N)[C@@H]5CC[C@]43C)[C@H]12 (stereo not given in full) | < | 4.30
CC(=O)O[C@@H]1CC[C@@]2(C)[C@@H](CC[C@]3(C)[C@@H]2C(=O)C=C2[C@@H]4[C@@H](C)[C@H](C)CC[C@]4(C)CC[C@]23C)[C@@]1(C)C(=O)O [AKBA] | = | 4.96
CCCCOC(=O)[C@@]1(C)C(=O)/C(=C\O)C[C@]2(C)[C@H]3C(=O)C=C4[C@@H]5[C@@H](C)[C@H](C)CC[C@]5(C)CC[C@@]4(C)[C@]3(C)CC[C@@H]12 | = | 5.30
CCCCOC(=O)[C@]1(C)[C@@H]2CC[C@]3(C)[C@H](CC=C4[C@@H]5[C@@H](C)[C@H](C)CC[C@]5(C)CC[C@]43C)[C@@]2(C)CC[C@H]1OC(C)=O | = | 4.55
CC(=O)O[C@@H]1CC[C@@]2(C)[C@@H](CC[C@]3(C)[C@@H]2CC=C2[C@@H]4[C@@H](C)[C@H](C)CC[C@]4(C)CC[C@]23C)[C@@]1(C)C(=O)O | = | 5.00
CCCCOC(=O)[C@@]1(C)C(=O)CC[C@]2(C)[C@H]3CC=C4[C@@H]5[C@@H](C)[C@H](C)CC[C@]5(C)CC[C@@]4(C)[C@]3(C)CC[C@@H]12 | < | 4.30
CCCCOC(=O)[C@@]1(C)c2oncc2C[C@@]2(C)[C@H]1CC[C@]1(C)[C@@H]2C(=O)C=C2[C@@H]3[C@@H](C)[C@H](C)CC[C@]3(C)CC[C@]21C | = | 4.48
CCCCOC(=O)[C@]1(C)[C@@H]2CC[C@]3(C)[C@H](C(=O)C=C4[C@@H]5[C@@H](C)[C@H](C)CC[C@]5(C)CC[C@]43C)[C@@]2(C)CC[C@H]1OC(C)=O | = | 4.52
CCCCOC(=O)[C@]1(C)[C@@H]2CC[C@]3(C)[C@H](C(=O)C=C4[C@@H]5[C@@H](C)[C@H](C)CC[C@]5(C)CC[C@]43C)[C@@]2(C)CC(C#N)[C@@H]1O (stereo not given in full) | = | 4.85
CCCCOC(=O)[C@@]1(C)C(=O)C(C#N)=C[C@]2(C)[C@H]3C(=O)C=C4[C@@H]5[C@@H](C)[C@H](C)CC[C@]5(C)CC[C@@]4(C)[C@]3(C)CC[C@@H]12 | = | 6.17
CCCCOC(=O)[C@@]1(C)[C@H](O)CC[C@@]2(C)[C@H]1CC[C@]1(C)[C@@H]2C(=O)C=C2[C@@H]3[C@@H](C)[C@H](C)CC[C@]3(C)CC[C@]21C | = | 4.47
C[C@H]1[C@H](C)CC[C@]2(C)CC[C@]3(C)C(=CC[C@@H]4[C@@]5(C)CC[C@@H](O)[C@](C)(C(=O)O)[C@@H]5CC[C@]43C)[C@H]12 [BOSWELLIC ACID] | = | 4.62
C[C@H]1[C@H](C)CC[C@]2(C)CC[C@]3(C)C(=CC[C@@H]4[C@@]5(C)CC(C(N)=O)[C@H](O)[C@](C)(N=C=O)[C@@H]5CC[C@]43C)[C@H]12 (stereo not given in full) | < | 4.30
CCCCOC(=O)[C@@]1(C)C(=O)C(C#N)C[C@]2(C)[C@H]3CC=C4[C@@H]5[C@@H](C)[C@H](C)CC[C@]5(C)CC[C@@]4(C)[C@]3(C)CC[C@@H]12 (stereo not given in full) | = | 4.85
C[C@H]1[C@H](C)CC[C@]2(C)CC[C@]3(C)C(=CC(=O)[C@@H]4[C@@]5(C)CC(C(N)=O)[C@H](O)[C@](C)(N=C=O)[C@@H]5CC[C@]43C)[C@H]12 (stereo not given in full) | = | 4.62
CCCCOC(=O)[C@@]1(C)C(=O)C(C#N)C[C@]2(C)[C@H]3C(=O)C=C4[C@@H]5[C@@H](C)[C@H](C)CC[C@]5(C)CC[C@@]4(C)[C@]3(C)CC[C@@H]12 (stereo not given in full) | = | 4.96
C[C@H]1[C@H](C)CC[C@]2(C)CC[C@]3(C)C(=CC(=O)[C@@H]4[C@@]5(C)CC[C@@H](O)[C@](C)(C(=O)O)[C@@H]5CC[C@]43C)[C@H]12 [11-KETO BOSWELLIC ACID] | = | 4.49
C[C@H]1[C@H](C)CC[C@]2(C)CC[C@]3(C)C(=CC[C@@H]4[C@@]5(C)CC(C(N)=O)[C@H](O)[C@](C)(N)[C@@H]5CC[C@]43C)[C@H]12 (stereo not given in full) | = | 4.43
